Test system: pseudoviral particles bearing the Spike glycoprotein from SARS-CoV-2
Method summary: microbe, parasite or virus in culture
Assay type: cell-based
Experimental setup: Severe acute respiratory syndrome coronavirus 2, 293T/ACE2, read-out: IC50 SARS-CoV-2, Table 1; pseudovirus, 293T-ACE2 cells, compounds up to 100 µM
Attribute measured: pIC50
# pIC50 = -log10(concentration in molar units)

Example cases with answers are listed next.
Smiles representation | pIC50
CCN(CC)C[C@@H](O)COc1cc(Br)cc(OC[C@H](O)CN(CC)CC)c1 | 5.75
CN1CCN(C[C@@H](O)COc2cccc(OC[C@H](O)CN3CCN(C)CC3)c2)CC1 | 5.75

Data request: So what does the record say about pIC50 for O[C@@H](COc1ccccc1)CN1CCCCC1 ?
Data returned: 5.87

====

Tested on: pseudoviral particles bearing the Spike glycoprotein from SARS-CoV-2
Method summary: microbe, parasite or virus in culture
Format: cell-based
Experimental setup: Severe acute respiratory syndrome coronavirus 2, 293T/ACE2, read-out: IC50 SARS-CoV-2, Table 1; pseudovirus, 293T-ACE2 cells, compounds up to 100 µM
Attribute measured: pIC50
# pIC50 = -log10(concentration in molar units)

Smiles representation | pIC50
CC(C)CNC[C@@H](O)COc1cc(Br)cc(OC[C@H](O)CNCC(C)C)c1 | 6.49

We next turn to a different molecule, shown below.
Data request: So what does the record say about pIC50 for CN(C)C[C@@H](O)COc1cccc(OC[C@H](O)CN(C)C)c1 ?
Data returned: 5.79

====

Property: pIC50; scope: individual compounds
System: pseudoviral particles bearing the Spike glycoprotein from SARS-CoV-2
Method summary: microbe, parasite or virus in culture
Type: cell-based
Experimental setup: Severe acute respiratory syndrome coronavirus 2, 293T/ACE2, read-out: IC50 SARS-CoV-2, Table 1; pseudovirus, 293T-ACE2 cells, compounds up to 100 µM
# pIC50 = -log10(concentration in molar units)

Example cases with answers are listed next.
Smiles representation | Study system | pIC50
O[C@H](CNC1CCOCC1)COc1cc(Br)cc(OC[C@H](O)CNC2CCOCC2)c1 | pseudoviral particles bearing the Spike glycoprotein from SARS-CoV-2 | 5.44
CN(C)C[C@@H](O)COc1cc(Br)cc(OC[C@H](O)CN(C)C)c1 | pseudoviral particles bearing the Spike glycoprotein from SARS-CoV-2 | 6.36
C=CCNC[C@@H](O)COc1cccc(OC[C@H](O)CNCC=C)c1 | pseudoviral particles bearing the Spike glycoprotein from SARS-CoV-2 | 4.32
C=CCNC[C@@H](O)COc1cc(Br)cc(OC[C@H](O)CNCC=C)c1 | pseudoviral particles bearing the Spike glycoprotein from SARS-CoV-2 | 6.15

We next turn to a different compound, shown below.
Data request: So what does the record say about pIC50 for O[C@H](CNCc1ccccc1)COc1cc(Br)cc(OC[C@H](O)CNCc2ccccc2)c1 ?
Data returned: 6.31

====

Property: IC50; scope: individual molecules
Test system: SARS-CoV-2 EG.5.1 Spike pseudovirus
Method summary: organism not typed
Type: cell-based
Experimental setup: read-out: IC50 EG.5.1
The figure you give is taken to be in nM; do not add the unit.

Example cases with answers are listed next.
Molecule | IC50 (nM)
CCN(C)C[C@@H](O)COc1cc(Br)cc(OC[C@H](O)CN(C)CC)c1 [Compound 33] | 1820
CN(C)C[C@@H](O)COc1cc(Br)cc(OC[C@H](O)CN(C)C)c1 [Compound 27] | 1130
CN1CCN(C[C@@H](O)COc2cc(Br)cc(OC[C@H](O)CN3CCN(C)CC3)c2)CC1 [Compound 30] | 1500

We next turn to a different molecule, shown below.
Data request: For the record O[C@@H](COc1cccc(OC[C@H](O)CN2CCCCC2)c1)CN1CCCCC1 [(R,R)-VE607, reference compound] , what value of IC50 is listed for SARS-CoV-2 EG.5.1 Spike pseudovirus?
Data returned: 1310

====

Property: IC50; scope: individual molecules
Tested on: pseudoviral particles bearing the Spike glycoprotein from SARS-CoV-2
Method summary: microbe, parasite or virus in culture
Assay type: cell-based
Experimental setup: Severe acute respiratory syndrome coronavirus 2, 293T/ACE2, read-out: IC50 SARS-CoV-2, Table 1; pseudovirus, 293T-ACE2 cells, compounds up to 100 µM

Smiles representation | IC50
CC(C)CNC[C@@H](O)COc1cccc(Br)c1 | > 100 µM
CNC[C@@H](O)COc1ccccc1 | > 100 µM

Data request: So what does the record say about IC50 for CNC[C@@H](O)COc1cccc(Br)c1 ?
Data returned: > 100 µM
